# STUDY_SYSTEM: Histone-lysine N-methyltransferase EHMT1 (Homo sapiens, UniProt Q9H9B1)
# Sequence (Q9H9B1 whole entry): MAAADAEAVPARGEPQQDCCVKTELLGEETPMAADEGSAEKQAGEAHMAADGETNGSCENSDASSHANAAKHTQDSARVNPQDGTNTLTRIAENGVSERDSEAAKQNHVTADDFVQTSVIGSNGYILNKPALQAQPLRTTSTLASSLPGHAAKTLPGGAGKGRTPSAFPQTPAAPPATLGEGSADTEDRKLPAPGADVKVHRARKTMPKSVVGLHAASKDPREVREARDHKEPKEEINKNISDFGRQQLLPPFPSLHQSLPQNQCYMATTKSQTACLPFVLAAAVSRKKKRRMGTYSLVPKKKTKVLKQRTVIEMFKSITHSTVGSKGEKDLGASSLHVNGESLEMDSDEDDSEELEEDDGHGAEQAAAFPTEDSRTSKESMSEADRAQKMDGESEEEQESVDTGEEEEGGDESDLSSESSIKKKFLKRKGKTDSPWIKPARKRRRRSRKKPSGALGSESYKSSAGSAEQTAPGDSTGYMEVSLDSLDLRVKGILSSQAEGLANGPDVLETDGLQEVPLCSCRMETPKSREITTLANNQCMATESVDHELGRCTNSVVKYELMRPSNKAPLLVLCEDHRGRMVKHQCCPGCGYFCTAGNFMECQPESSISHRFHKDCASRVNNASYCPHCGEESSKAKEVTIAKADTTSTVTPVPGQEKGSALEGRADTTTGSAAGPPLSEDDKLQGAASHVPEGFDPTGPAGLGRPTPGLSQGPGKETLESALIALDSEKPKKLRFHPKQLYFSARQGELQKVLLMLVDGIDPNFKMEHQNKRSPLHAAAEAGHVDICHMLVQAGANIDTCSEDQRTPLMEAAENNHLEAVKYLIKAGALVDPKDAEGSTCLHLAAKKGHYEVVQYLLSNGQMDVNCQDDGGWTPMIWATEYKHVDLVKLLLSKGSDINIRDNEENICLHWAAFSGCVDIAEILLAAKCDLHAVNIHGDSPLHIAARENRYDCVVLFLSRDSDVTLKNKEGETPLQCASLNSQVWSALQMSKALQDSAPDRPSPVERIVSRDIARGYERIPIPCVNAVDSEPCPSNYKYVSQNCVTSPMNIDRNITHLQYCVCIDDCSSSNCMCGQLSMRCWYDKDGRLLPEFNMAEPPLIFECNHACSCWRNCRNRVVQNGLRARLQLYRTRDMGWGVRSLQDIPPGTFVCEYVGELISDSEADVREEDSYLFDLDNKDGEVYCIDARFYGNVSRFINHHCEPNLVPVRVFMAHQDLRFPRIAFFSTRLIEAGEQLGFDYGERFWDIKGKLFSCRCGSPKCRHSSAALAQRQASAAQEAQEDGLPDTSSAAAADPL
# EXPERIMENTAL_DETAILS: Inhibition of recombinant GLP catalytic SET domain (982 to 1266 residues) (unknown origin) expressed in Escherichia coli BL21 (DE3) codon plus RIL assessed as inhibition of methylation activity using biotin-labeled H3 (1 to 25 residues) as substrate and [3H]-SAM after 2 hrs by scintillation proximity assay
MEASUREMENT_NAME: pIC50
One number for each entry, as −log10 of the molar value.

# annotated cases, reported pIC50 shown
SMILES_REPR | pIC50
CCCCN(C)c1nc(NC2CCN(C)CC2)c2cc(OC)c(OC)cc2n1 | 7.46
CCCCCN(C)c1nc(NC2CCN(C)CC2)c2cc(OC)c(OC)cc2n1 | 7.55

Could you tell me pIC50 for each of these compounds? They are listed below.
1. COc1cc2nc(C3CCCCC3)nc(NC3CCN(C)CC3)c2cc1OC
2. COc1cc2nc(N3CCCN(C)CC3)nc(NC3CCN(C)CC3)c2cc1OC
3. CCCCCCNc1nc(NC2CCN(C)CC2)c2cc(OC)c(OC)cc2n1

1. 7.47
2. 8.40
3. 8.15

Could you tell me pIC50 for each of these compounds? They are listed below.
1. COc1cc2nc(N3CCCCC3)nc(NC3CCN(C)CC3)c2cc1OC
2. COc1cc2nc(C3CCOCC3)nc(NC3CCN(C)CC3)c2cc1OC
3. CCCN1CCC(Nc2nc(N3CCOCC3)nc3cc(OC)c(OC)cc23)CC1

1: 7.92; 2: 6.47; 3: 7.96

Cited source for all entries: ChEMBL document CHEMBL4004823
